ASSAY TARGET: T1, SARS-CoV-2 Alpha Variant RBD (SARS-CoV-2 Alpha variant)
T1 construct: domain: RBD; coated on ELISA plates
ASSAY SUMMARY: ELISA, RBD coated
READOUT TYPE: pEC50
Note on pEC50: it is the negative log10 of concentration, concentration in mol/L.

# BINDER, EXPERIMENTAL VALUE
records = [
    ("PP1105 MBP-5HVZ-PAPA-RN-20-H6 (VHH, Form: Dimer) VHH: QVQLVESGGGLVQPGGSLRLSCAASGNYFEINKMHWFRQAPGKQREFVATIGSGGSTAYADSVKGRFTISRDNAKNTVYLQMNSLKPEDTAVYYCNALIYLADRRDGYYSYDYWGQGTQVTVSS", 8.85),
    ("PP1101 MBP-5HVZ-PAPA-RN-16-H6 (VHH, Form: Dimer) VHH: QVQLVESGGGLVQPGGSLRLSCAASGADFSSNAMHWFRQAPGKAREFVASIDSDKSGYYADSVKGRFTISRDNAKNTVYLQMNSLKPEDTAVYYCNAYSGTDNYGYDYWGQGTQVTVSS", 8.75),
]

--- query ---
get_value(item= PP1103 MBP-5HVZ-PAPA-RN-18-H6 (VHH, Form: Dimer) VHH: QVQLVESGGGLVQPGGSLRLSCAASGYYFQIVAMHWYRQAPGKEREGVAGITSTGSTYYGDSVKGRFTISRDNAKNTVYLQMNSLKPEDTAVYYCNAVSTDAQGAAEYWGQGTQVTVSS , readout=pEC50) returns 8.84
